experiment: in vitro; conditions: Atlantic salmon
Recorded Metric: CC50 at 3 days

>>> df
                                   compound       result
0  NC(=O)c1ncn([C@@H]2O[C@H](CO)[C@@H](O)[C@H]2O)n1 [ribavirin]  > 400 µg/mL
